Target: T1, mfTSLP (cynomolgus monkey (Macaca fascicularis))
T1 construct: also called 猴TSLP; 食蟹猴TSLP
T1 chain: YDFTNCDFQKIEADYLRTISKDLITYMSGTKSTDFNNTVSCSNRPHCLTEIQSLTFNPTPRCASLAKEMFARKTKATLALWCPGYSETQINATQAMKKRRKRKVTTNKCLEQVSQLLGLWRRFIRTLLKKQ
Assay: SPR (Biacore X100) as in Example 3.1, antibody captured, mfTSLP as analyte
readout_label: pKd
In simple prose, pKd is minus the logarithm base ten of a concentration in moles per litre.

Input line: Quick one: pKd of H1A10+L3E8-M1 (antibody, human IgG4, V domains shown, also called L3E8人源化突变体; 人源化抗TSLP单克隆抗体) VH: QVQLVQSGAEVKKPGASVKVSCKASGYAFSNYWMNWVRQAPGQGLEWMGQIFPGDSDTDYDQKFQGRVTMTRDTSTSTVYMELSSLRSEDTAVYYCARAGYYRGYYAMDYWGQGTTVTVSS VL: EIVMTQSPATLSVSPGERATLSCSVSSSISSSNLHWYQQKPGQAPRPWIYGTSNLASGIPARFSGSGSGTEFTLTISSLQSEDFAVYYCQQWSSYPLTFGQGTKLEIK ?
Output line: 8.58
